// values below are reported Preemergence herbicidal rating AMBEL
Tested on: AMBEL (Ragweed, Common)
PROCEDURE_TEXT: Preemergence herbicidal evaluation
Assay type: in vivo, Ambrosia artemisifolia
RUN_PARAMETERS: rate 0.1250 kg/ha; rated 4-5 weeks after treatment; rating scale 0-9
Respond with the number and no other words.

Worked cases, answers included:
>>> df
                                   compound  assay_value
0  Cn1c(C(F)(F)F)cc(=O)n(-c2cc(N=C3SCC(=O)N3Cc3cc(Cl)cc(Cl)c3)c(Cl)cc2F)c1=O          3.0
1  CCOC(=O)CN1C(=O)C(COC)SC1=Nc1cc(-n2c(=O)cc(C(F)(F)F)n(C)c2=O)c(F)cc1Cl (stereo not shown)          5.0
2  CCOC(=O)CN1C(=O)C(Br)SC1=Nc1cc(-n2c(=O)cc(C(F)(F)F)n(C)c2=O)c(F)cc1Cl (stereo not shown)          0.0
3  Cn1c(C(F)(F)F)cc(=O)n(-c2cc(N=C3SCC(=O)N3Cc3ccccn3)c(Cl)cc2F)c1=O          0.0
4  Cn1c(C(F)(F)F)cc(=O)n(-c2cc(N=C3SCC(=O)N3Cc3ccc(F)cc3)c(Cl)cc2F)c1=O          9.0

Just so you know, measured Preemergence herbicidal rating AMBEL for `Cn1c(C(F)(F)F)cc(=O)n(-c2cc(N=C3SCC(=O)N3Cc3ccncc3)c(Cl)cc2F)c1=O` came out at 0.0

Item: `Cn1c(C(F)(F)F)cc(=O)n(-c2cc(N=C3SCC(=O)N3Cc3cccnc3)c(Cl)cc2F)c1=O` | Preemergence herbicidal rating AMBEL: 4.0

====

Overview of recorded IPOHE herbicidal rating for various molecules
Tested on: IPOHE (Morningglory, Ivyleaf)
PROCEDURE_TEXT: Postemergence herbicidal evaluation
Type: in vivo, Ipomoea hederacea
RUN_PARAMETERS: postemergence, rate 0.0156 kg/ha
Give the figure only, with no unit attached.

>>> print(df.to_string())
                                   molecule          reported_metric  assay_value
0  CCOC(=O)CN1C(=O)CN(C)C1=Nc1cc(-n2c(=O)cc(C(F)(F)F)n(C)c2=O)c(F)cc1Cl  IPOHE herbicidal rating          9.0
1  C=CCN1C(=O)C(CC(=O)NS(C)(=O)=O)SC1=Nc1cc(-n2c(=O)cc(C(F)(F)F)n(C)c2=O)c(F)cc1Cl (centres unmarked)  IPOHE herbicidal rating          6.0
2  C=CCN1C(=O)C(CC(=O)NC)SC1=Nc1cc(-n2c(=O)cc(C(F)(F)F)n(C)c2=O)c(F)cc1Cl (centres unmarked)  IPOHE herbicidal rating          9.0

For record CCOC(=O)CN1C(=O)C(CC(=O)NOC)SC1=Nc1cc(-n2c(=O)cc(C(F)(F)F)n(C)c2=O)c(F)cc1Cl (centres unmarked) the listed IPOHE herbicidal rating is 9.0

The reported IPOHE herbicidal rating of the molecule `CCOC(=O)/C=C1/S/C(=N/c2cc(-n3c(=O)cc(C(F)(F)F)n(C)c3=O)c(F)cc2Cl)N(CC(=O)OCC)C1=O` was 9.0

====

System: GLXMAW (Soybean, Williams)
PROCEDURE_TEXT: Postemergence herbicidal evaluation
Type: in vivo, Glycine max, (L.) Merr. cv Williams
RUN_PARAMETERS: postemergence, rate 0.0156 kg/ha
Below, each entry is listed with its recorded GLXMAW herbicidal rating.
# answer = number (no unit)

As a guide, the following entries are already answered.
>>> print(df.to_string())
                                   molecule           target_under_test  assay_value
0  CCOC(=O)/C=C1/S/C(=N/c2cc(-n3c(=O)cc(C(F)(F)F)n(C)c3=O)c(F)cc2Cl)N(CC(=O)OCC)C1=O  GLXMAW (Soybean, Williams)          6.0
1  CCOC(=O)CN1C(=O)CN(C)C1=Nc1cc(-n2c(=O)cc(C(F)(F)F)n(C)c2=O)c(F)cc1Cl  GLXMAW (Soybean, Williams)          7.0
2  C=CCN1C(=O)C(CC(=O)OCCF)SC1=Nc1cc(-n2c(=O)cc(C(F)(F)F)n(C)c2=O)c(F)cc1Cl (stereo not shown)  GLXMAW (Soybean, Williams)          8.5

Field: next molecule
For reference, reported GLXMAW herbicidal rating for `CCOC(=O)CN1C(=O)C2(CC2)SC1=Nc1cc(-n2c(=O)cc(C(F)(F)F)n(C)c2=O)c(F)cc1Cl` stands at 3.5
